Source listed as ChEMBL document CHEMBL4673235.

I'd appreciate it if you could supply IC50 values for the items below.
System: HL-60
Protocol details: Cytotoxicity against human HL-60 cells assessed as reduction in cell viability by CellTiter Glo luminescent assay
Assay type: functional, cell-based

INSERT INTO measurements (substance_smiles, measurement_target, value_kind, data_value) VALUES
  ('C=C(CC)C(=O)c1ccc(OCC(=O)NCCNS(=O)(=O)c2ccc(OC)c(OC)c2)c(Cl)c1Cl', 'HL-60', 'IC50', '3360 nM'),
  ('COc1cccc2c1C(=O)c1c(O)c3c(c(O)c1C2=O)C[C@@](O)(C(=O)CO)C[C@@H]3O[C@H]1C[C@H](N)[C@H](O)[C@H](C)O1', 'HL-60', 'IC50', '10 nM');

# batch size: 2; output IC50 per entry
1. C=C(CC)C(=O)c1ccc(OCC(=O)NCCNS(=O)(=O)c2cccc3cccnc23)c(Cl)c1Cl
2. C=C(CC)C(=O)c1ccc(OCC(=O)NCCNS(=O)(=O)C2CCCCC2)c(Cl)c1Cl

RESULT:
1: 1330 nM; 2: 1340 nM

Provide each entry's IC50 from the list below.
1. C=C(CC)C(=O)c1ccc(OCC(=O)NC2CCN(S(=O)(=O)c3ccc(OC)c(OC)c3)CC2)c(Cl)c1Cl
2. C=C(CC)C(=O)c1ccc(OCC(=O)NC2CCN(S(=O)(=O)c3ccc(C)cc3)CC2)c(Cl)c1Cl
3. C=C(CC)C(=O)c1ccc(OCC(=O)NCCNS(C)(=O)=O)c(Cl)c1Cl
4. C=C(CC)C(=O)c1ccc(OCC(=O)N2CCN(S(=O)(=O)c3ccc(OC)cc3OC)CC2)c(Cl)c1Cl
5. C=C(CC)C(=O)c1ccc(OCC(=O)NCCNS(=O)(=O)c2cc(Cl)ccc2OC)c(Cl)c1Cl

RESULT:
1: 1310 nM; 2: 980 nM; 3: 940 nM; 4: 3190 nM; 5: 1600 nM
